Source: PubChem BioAssay (NCI)

# Test system: OVCAR-3 ovarian
# assay comment: NCI-60 one-dose screen, 48 h (100 = growth as untreated, 0 = no growth, -100 = all killed)
# run conditions: 10 µM
This is part of a sample that, as a whole, favours compounds with a hit. Of some 83,000 tested, about 20% had one in any assay.
Lab note: cut-off is 80%. Strictly less in growth is y. Exactly 80% or more is n.

Prompt line: Is the reported growth for "Clc1ccc(-c2cn(-c3ccccc3)c(-c3ccccc3)n2)c(Cl)c1" strictly below 80%?
Response line: y

Prompt line: Can you handle COc1cc2c(cc1OC)N(CCO)C1=C(C(=O)OC1)C2c1ccc(Cl)c(Cl)c1 (stereo not given) next?
Response line: n

Prompt line: Can you handle "Nc1ncnc2[nH]c(=O)[nH]c12" next?
Response line: n

Prompt line: Can you handle "c1ccc2c(c1)oc1c3cccnc3ccc21" next?
Response line: n

Prompt line: Can you handle "COc1ccc(-c2nnc(-c3c(-c4ccccc4)nc4ncccn34)o2)cc1OC" next?
Response line: n

Prompt line: Can you handle O=C1OCC2=C1C(c1cccc(Br)c1)c1cc3c(cc1N2CCO)CCC3 (stereo not given) next?
Response line: y

Prompt line: Can you handle "CN(C)C(=S)N/N=C\C=N/NC(=S)N(C)C" next?
Response line: y

Prompt line: Can you handle "O=C(C[P+](c1ccccc1)(c1ccccc1)c1ccccc1)C[P+](c1ccccc1)(c1ccccc1)c1ccccc1" next?
Response line: y

Prompt line: Can you handle "CSCCCNC(=O)c1ccc2c(c1)/C(=C/c1[nH]c(C)cc1C)C(=O)N2" next?
Response line: y

Prompt line: Can you handle "Fc1cc(C(F)(F)F)ccc1-c1cncnc1NC1CCCCCC1" next?
Response line: n

Prompt line: Can you handle "O=C(Nc1nc2ccc(F)cc2s1)c1cc(-c2ccc(F)cc2)n2nc(-c3ccccc3)cc2n1" next?
Response line: n

Prompt line: Can you handle "COc1ccc(Nc2ncnc3c2c(SC)nn3-c2ccccc2)cc1" next?
Response line: n

Prompt line: Can you handle "Nc1c(C(=O)Nc2cccc(F)c2)sc2nc3c(cc12)C(=O)CCC3" next?
Response line: y

Prompt line: Can you handle "COc1ccc(/C(=C2\O[C@@H]([C@H]3COC(C)(C)O3)[C@H]3OC(C)(C)O[C@@H]23)c2cc(OC)c(OC)c(OC)c2)cc1O" next?
Response line: y

Prompt line: Can you handle "COc1ccc(-c2nc3ncccn3c2-c2nnc(-c3ccc(F)cc3)o2)cc1" next?
Response line: n

Prompt line: Can you handle "O=C(Nc1ccccc1)Nc1cccc(-n2cc(-c3ccncc3)c(-c3ccc(O)c(Cl)c3)n2)c1" next?
Response line: y

Prompt line: Can you handle "CC(=O)n1c(-c2ccc(Cl)c(Cl)c2)cn(-c2ccc(Cl)cc2)c1=O" next?
Response line: y

Prompt line: Can you handle "COc1ccc(-c2nn(-c3cccc(NC(=O)c4ccc(N5CCOCC5)c(C(F)(F)F)c4)c3)cc2-c2ccncc2)cc1Cl" next?
Response line: n

---

# Tested on: ACHN renal
# assay comment: NCI-60 one-dose screen, 48 h
# run conditions: 10 µM
About 83,000 compounds went through this panel and 20% of them were active in at least one assay; those are over-represented in the sample as a whole. Active and inactive are the calls of the source. How the source made its calls: active means growth percent below 10; inactive means the rest.
I would appreciate it if you answered using one of these outcomes: label 1 (active), label 0 (inactive)

Prompt line: Dear all, I need the recorded test outcome for CCN1CCCC1CNC(=O)c1ncc(-c2ccc(C(F)(F)F)cc2)c(NC2CCCCCC2)n1 (stereo unspecified) , thank you.
Response line: label 0

Prompt line: Can you handle "Cc1cccc(Cl)c1NC(=O)c1ccc2nc(NC(=O)NC3CCN(C)CC3)sc2c1" next?
Response line: label 0

Prompt line: Can you handle "Nc1c(C(=O)Nc2ccccc2)sc2nc3c(cc12)CCCC3" next?
Response line: label 0

Prompt line: Can you handle CCCCCCN1C(=O)C2=C(c3ccc(Cl)cc3)Nc3c(c(C)nn3-c3ccccc3)C2c2ccccc21 (stereo unspecified) next?
Response line: label 0

Prompt line: Can you handle "Cc1cc(Cc2cc(C)c(O)c(C)c2)cc(C)c1O" next?
Response line: label 0

Prompt line: Can you handle COc1cc([C@@H]2c3cc4c(cc3C(Br)[C@H]3COC(=O)[C@H]23)OCO4)cc(OC)c1OC (stereo partly specified) next?
Response line: label 0

Prompt line: Can you handle CCN(CC)CCC(CNc1c(C)cnc2cc(Cl)ccc12)c1ccc(Cl)cc1 (stereo unspecified) next?
Response line: label 0

Prompt line: Can you handle "COc1ccc(-c2cc(/C=C3\C(=O)Nc4ccc(OC)cc43)[nH]n2)cc1" next?
Response line: label 0

Prompt line: Can you handle "Cc1cc2c(C)c3cc(C)c(N)cc3nc2cc1N" next?
Response line: label 1

Prompt line: Can you handle "NC(=O)SCC(=O)Nc1ccc(S(N)(=O)=O)cc1" next?
Response line: label 0

Prompt line: Can you handle Nc1ccn(C2CC(O)C(CO)O2)c(=O)n1 (stereo unspecified) next?
Response line: label 0

Prompt line: Can you handle CCOC(=O)C(NC(=O)C(Cl)Cl)C(O)c1ccccc1 (stereo unspecified) next?
Response line: label 0

Prompt line: Can you handle CO/N=C(/C(=O)NC1C(=O)N2C(C(=O)O)=C(COC(N)=O)CSC12)c1ccco1 (stereo unspecified) next?
Response line: label 0

Prompt line: Can you handle C=C1c2c(C)nn(-c3ccc(OC)cc3)c2N(C)C23C[C@@H]1C1(C)c4c(C)nn(-c5ccc(OC)cc5)c4N(C)C(C)(C[C@H]12)C3 (stereo partly specified) next?
Response line: label 0

Prompt line: Can you handle "O=[N+]([O-])c1cccc(-c2ncc(-c3ccc(Cl)cc3Cl)[nH]2)c1" next?
Response line: label 1

Prompt line: Can you handle "COc1cc(OC)cc(-c2cncn2-c2ccc(-c3nc4cc(OC)cc(OC)c4s3)cc2)c1" next?
Response line: label 0

Prompt line: Can you handle "COc1cc(Cl)cc(-c2nn(-c3cccc(NC(=O)c4ccc(N5CCOCC5)c(C(F)(F)F)c4)c3)cc2-c2ccncc2)c1" next?
Response line: label 0

Prompt line: Can you handle CCCCCCCC(C)NCCO (stereo unspecified) next?
Response line: label 0

Prompt line: Can you handle "O=C1/C(=C/c2ccc(Cl)cc2)SC(=Nc2ccc(Cl)cc2)N1Cc1nc2ccccc2[nH]1" next?
Response line: label 0

Prompt line: Can you handle "c1ccc([I+]c2ccccc2)cc1" next?
Response line: label 0

Prompt line: Can you handle "c1ccc2c(c1)oc1c3c(ccc12)NCCC3" next?
Response line: label 0
